- SYSTEM TESTED: HLA-A*29:02
- EXPERIMENT: IEDB peptide-MHC binding, purified MHC/competitive/radioactivity; filed as Kd, often an IC50 or EC50 that approximates it; bounds were set here for any values at or beyond the usual limits of such assays
- EXPERIMENTAL CONTEXT: source organism: Mammarenavirus whitewaterense
PROPERTY NAME: Kd
Note: state the figure and append the unit.

Query: // lookup Kd | system=HLA-A*29:02 | key= "DHHFTPQII"
Reply: 2970 nM

====

- SYSTEM TESTED: HLA-B*58:01
- EXPERIMENT: IEDB peptide-MHC binding, purified MHC/direct/fluorescence; filed as Kd, often an IC50 or EC50 that approximates it; bounds were set here for any values at or beyond the usual limits of such assays
- EXPERIMENTAL CONTEXT: source organism: Salmonella enterica subsp. enterica serovar Typhi
pKd: −log10 of the molar value.
PROPERTY NAME: pKd

Query: Could you share which pKd value was measured for "REILFHNTM" ?
Reply: ≤ 4.70

====

- SYSTEM TESTED: HLA-B*51:01
- EXPERIMENT: IEDB peptide-MHC binding, purified MHC/competitive/fluorescence; filed as Kd, often an IC50 or EC50 that approximates it; bounds were set here for any values at or beyond the usual limits of such assays
- EXPERIMENTAL CONTEXT: source organism: Bacillus anthracis str. A0442
PROPERTY NAME: Kd (nM)
Use nM as the unit, but write only the number.

Query: // lookup Kd | system=HLA-B*51:01 | key= "EPINMFLFI"
Reply: 465

====

- SYSTEM TESTED: HLA-A*02:01
- EXPERIMENT: IEDB peptide-MHC binding, purified MHC/direct/fluorescence; filed as Kd, often an IC50 or EC50 that approximates it; bounds were set here for any values at or beyond the usual limits of such assays
- EXPERIMENTAL CONTEXT: source organism: Bacillus licheniformis
PROPERTY NAME: pKd
Kindly note that pKd refers to -log10 of the concentration in mol/L and answer with the value alone.

Query: Could you share which pKd value was measured for "ALMEITSRY" ?
Reply: 5.32

====

- SYSTEM TESTED: HLA-A*68:02
- EXPERIMENT: IEDB peptide-MHC binding, purified MHC/competitive/fluorescence; filed as Kd, often an IC50 or EC50 that approximates it; bounds were set here for any values at or beyond the usual limits of such assays
- EXPERIMENTAL CONTEXT: source organism: Mycobacterium tuberculosis H37Ra
PROPERTY NAME: Kd

Query: Could you share which Kd value was measured for "AVYLLDGLR" ?
Reply: ≥ 20 µM

====

- SYSTEM TESTED: HLA-A*33:01
- EXPERIMENT: IEDB peptide-MHC binding, purified MHC/competitive/radioactivity; filed as Kd, often an IC50 or EC50 that approximates it; bounds were set here for any values at or beyond the usual limits of such assays
- EXPERIMENTAL CONTEXT: source organism: Dengue virus 3 Martinique/1243/1999
Documented pKd across a set of sequences
Kindly note that pKd refers to -log10 of the concentration in mol/L and answer with the value alone.

Query: Could you share which pKd value was measured for "NKKPRLCTR" ?
Reply: 5.41

More entries:
Query: Could you share which pKd value was measured for "EVKTCTWPK" ?
Reply: 8.07

Query: Could you share which pKd value was measured for "EATQLATLR" ?
Reply: 7.02

Values from the Immune Epitope Database (IEDB)
